# Protocol Details: Acute toxicity in mice, endoperitoneal administration (LD50)
# Format: in vivo
# Test Settings: mouse, in vivo, ip, 300 mg/kg
Measurement Type: mortality at 168 h (%)
Supply the numeric figure in %, leaving out any unit text.

Given Cl.Clc1ccccc1CN1CCCC1 [MRAP2, hydrochloride] , state its recorded mortality at 168 h.
100

---

# Protocol Details: Acute toxicity in rats, oral administration (LD50)
# Type: in vivo
# Test Settings: rat, in vivo, 1000 mg/kg
Measurement Type: mortality at 168 h (%)
Value expressed in %; do not type the unit.

Which measured mortality at 168 h value corresponds to Cl.Clc1ccccc1CN1CCCC1 [MRAP2, hydrochloride] ?
100

---

# Protocol Details: Acute toxicity in mice, oral administration (LD50)
# Assay type: in vivo
# Test Settings: mouse, in vivo, 500 mg/kg
Measurement Type: mortality at 168 h (%)
Write down the numeric answer in % and omit the unit.

Please give the measured mortality at 168 h for this compound: Cl.Clc1ccccc1CN1CCCC1 [MRAP2, hydrochloride]
45

---

# Protocol Details: Acute toxicity in rats, oral administration (LD50)
# Type: in vivo
# Test Settings: rat, in vivo, 400 mg/kg
Measurement Type: mortality at 168 h (%)
API: value field is a number in %; no unit string.

What measured mortality at 168 h goes with Cl.Clc1ccccc1CN1CCCC1 [MRAP2, hydrochloride] ?
0

---

# Protocol Details: Acute toxicity in mice, oral administration (LD50)
# Assay type: in vivo
# Test Settings: mouse, in vivo, 800 mg/kg
Measurement Type: mortality at 168 h (%)
// units = %; emit number, no label

Please look up its mortality at 168 h: Cl.Clc1ccccc1CN1CCCC1 [MRAP2, hydrochloride]
100

---

# Protocol Details: Acute toxicity in mice, oral administration (LD50)
# Type: in vivo
# Test Settings: mouse, in vivo, 1000 mg/kg
Measurement Type: mortality at 168 h (%)
Please reply with the bare figure in % and do not write the unit itself.

Give its mortality at 168 h value. Item: Cl.Clc1ccccc1CN1CCCC1 [MRAP2, hydrochloride]
100
